Measured values drawn from patent US12448388B2 for this set.

- measurement-description: Pharmacokinetics in cassette in male cynomolgus monkeys for Kp measurement
- Type: in vivo
- assay-conditions: cynomolgus monkey, intravenous, 0.5 mg/kg, brain Kpu,u = Kp * (plasma free/rat brain free), read-out: Cyno brain Kpu,u
- Method: F.1 Test Animal: Cynomolgus Monkeys from Labcorp 8298417 Maintained at Labcorp-Madison F.2 Pharmaceutical Formulation and Administration Test compound was dissolved in the vehicle of 10% DMSO, 10% ethanol, 40% polyethylene glycol 300, and 40% propylene glycol to get 0.5 mg/mL test compound solution. The compound was administered by intravenous administration at a dose of 1 mL/kg. […]
Please mark MET if the recorded Kp is equal to or greater than 0.2, and NOT MET if it falls below.

molecule | label
C[C@@H]1CN(C(=O)c2cc3c(cc2F)nc(N)c2cncn23)[C@H]2c3cc(F)c(OC(F)(F)F)cc3C[C@H]2O1 (single isomer, unassigned) | MET

Query: Confirm if Kp reported for the molecule C[C@H]1CN(C(=O)c2cc3c(cc2F)nc(N)c2cncn23)[C@H]2c3ccc(C(F)(F)F)cc3C[C@H]2O1 (single isomer, unassigned) is 0.2 or above.
Result: NOT MET

Query: Hello, I need to know if Nc1nc2cnc(C(=O)N3CCC[C@@H]4Oc5cc(OC(F)(F)F)cc(F)c5[C@@H]43)cc2n2cncc12 (single isomer, unassigned) has measured Kp not below 0.2. Thanks!
Result: NOT MET

Query: Assess whether reported Kp for Nc1nc2ccc(C(=O)N3CCC[C@@H]4Oc5cc(C(F)(F)F)ccc5[C@@H]43)cc2n2cncc12 sits at 0.2 or higher.
Result: MET

Query: Does Nc1nc2cnc(C(=O)N3CCC[C@@H]4Oc5cc(C(F)(F)F)cc(F)c5[C@@H]43)cc2n2cncc12 (single isomer, unassigned) have a reported Kp of at least 0.2?
Result: NOT MET

* * *

- Tested on: HCT116 MTAP-deleted cell lines
- measurement-description: Cell viability assay (CellTiter-Glo, 7 days), HCT116 MTAP-deleted
- Assay type: cell-based
- assay-conditions: Homo sapiens, HCT-116; cell viability, HCT116 MTAP-deleted; class symbols; read-out: CC50
property: CC50

compound | CC50
Cc1ncc2c(N)nc3ccc(C(=O)N4CCC[C@@H]5Oc6c(ccc(C(F)(F)F)c6F)[C@@H]54)cc3n12 [Ff-122] | < 100 nM

Query: CC50 lookup needed for Nc1nc2cc(F)c(C(=O)N3CCO[C@@H]4Cc5c(cc(F)c(Br)c5F)[C@@H]43)cc2n2cncc12 [Ff-161] , thanks.
Result: 100 to 1000 nM

Query: Bench note: what CC50 did CC(=O)N(C)N(Cc1ccc(C(F)(F)F)cc1Cl)C(=O)c1cc2c(cc1F)nc(N)c1cncn12 [Fb-1] show?
Result: < 100 nM

Query: Entry under review: C[C@H]1CN(C(=O)c2cc3c(cc2F)nc(N)c2cncn23)[C@H]2c3ccc(-c4cnn(C(F)(F)F)c4)cc3C[C@H]2O1 [Ff-97] . Reported CC50?
Result: 100 to 1000 nM

* * *

- Test system: Calu-6 (lung, adenocarcinoma; MTAP-WT)
- measurement-description: In vitro cell viability assay (CellTiter-Glo, 9 days), Calu-6
- Type: cell-based
- assay-conditions: Homo sapiens, Calu-6, 216 h, 9-day treatment
property: GI50
# output: number + unit

Before answering, review these 2 worked examples.
compound | GI50
Nc1nc2cnc(C(=O)N3CCC[C@@H]4Oc5cc(OC(F)(F)F)cc(F)c5[C@@H]43)cc2n2cncc12 (single isomer, unassigned) | 2510 nM
Nc1nc2cnc(C(=O)N3CCC[C@@H]4Oc5cc(C(F)(F)F)cc(F)c5[C@@H]43)cc2n2cncc12 (single isomer, unassigned) | 1260 nM

Query: Requested field: GI50. Item: Nc1nc2cc(F)c(C(=O)N3CCC[C@@H]4Oc5cc(C(F)(F)F)ccc5[C@@H]43)cc2n2cncc12
Result: 2150 nM
